Property: LC50; scope: individual compounds
Test system: OVCAR-8
Experiment: Cytotoxicity against human OVCAR8 cells
Assay type: cell-based
The answer is to be given in µM; state only the numeric part.

O=C(/C=C/c1ccc(CN(CCO)CCc2c[nH]c3ccccc23)cc1)NO    92.5

Moving on to another compound below.
Exercise: Return LC50 (reported value) for this compound: CC(/C=C/c1ccccc1)n1cc(/C=C/C(=O)NO)nn1 (centres undefined)
Solution: 6.91

* * *

Property: IC50; scope: individual molecules
Target: Histone deacetylase
Assay: Inhibition of HDAC in human HeLa cells using Ac-Arg-Gly-Lys(Ac)-AMC as fluorescent substrate after 20 mins by fluorescence assay
Format: cell-based
The answer is to be given in nM; state only the numeric part.

Exercise: Return IC50 (reported value) for this molecule: O=C(/C=C/c1cn(C(/C=C/c2ccccc2)Cc2ccccc2)nn1)NO (stereo not given)
Solution: 77

Exercise: Return IC50 (reported value) for this molecule: O=C(/C=C/c1cn(C(/C=C/c2ccccc2)Cc2cccc(Oc3ccccc3)c2)nn1)NO (stereo not given)
Solution: 510

Exercise: Return IC50 (reported value) for this molecule: O=C(/C=C/c1cn(C(/C=C/c2ccccc2)Cc2cccc3ccccc23)nn1)NO (stereo not given)
Solution: 111

Exercise: Return IC50 (reported value) for this molecule: O=C(/C=C/c1cn(C(/C=C/c2ccccc2)Cc2nccs2)nn1)NO (stereo not given)
Solution: 171

Exercise: Return IC50 (reported value) for this molecule: C=CCC(/C=C/c1ccccc1)n1cc(/C=C/C(=O)NO)nn1 (stereo not given)
Solution: 90

* * *

System: NCI-H322M
Assay: Cytotoxicity against human NCI-H322M cells
Format: cell-based
outcome.measure: LC50

Past entries and their recorded results:
CC(C)C(/C=C/c1ccccc1)n1cc(/C=C/C(=O)NO)nn1 (centres undefined)    > 100 µM
O=C(/C=C/c1ccc(CN(CCO)CCc2c[nH]c3ccccc23)cc1)NO [DACINOSTAT]    > 100 µM
O=C(/C=C/c1cn(C(/C=C/c2ccccc2)Cc2ccccc2)nn1)NO (centres undefined)    46.7 µM

Moving on to another compound below.
Exercise: Return LC50 (reported value) for this compound: CC(/C=C/c1ccccc1)n1cc(/C=C/C(=O)NO)nn1 (centres undefined)
Solution: > 100 µM

* * *

Property: GI50; scope: individual molecules
System: NCI-H226
Experiment: Antiproliferative activity against human NCI-H226 cells by SRB assay
Type: functional
The answer is to be given in nM; state only the numeric part.

Past entries and their recorded results:
CC(C)C(/C=C/c1ccccc1)n1cc(/C=C/C(=O)NO)nn1 (centres undefined)    2380
O=C(/C=C/c1ccc(CN(CCO)CCc2c[nH]c3ccccc23)cc1)NO [DACINOSTAT]    1410
O=C(/C=C/c1cn(C(/C=C/c2ccccc2)Cc2ccccc2)nn1)NO (centres undefined)    2440

Moving on to another molecule below.
Exercise: Return GI50 (reported value) for this molecule: CC(/C=C/c1ccccc1)n1cc(/C=C/C(=O)NO)nn1 (centres undefined)
Solution: 2350

* * *

Property: LC50; scope: individual compounds
Test system: SK-MEL-28
Experiment: Cytotoxicity against human SK-MEL-28 cells
Assay type: cell-based
The answer is to be given in µM; state only the numeric part.

O=C(/C=C/c1cn(C(/C=C/c2ccccc2)Cc2ccccc2)nn1)NO (centres undefined)    9.4

Exercise: Return LC50 (reported value) for this compound: CC(/C=C/c1ccccc1)n1cc(/C=C/C(=O)NO)nn1 (centres undefined)
Solution: 24.5

Exercise: Return LC50 (reported value) for this compound: O=C(/C=C/c1ccc(CN(CCO)CCc2c[nH]c3ccccc23)cc1)NO
Solution: 31.9

Exercise: Return LC50 (reported value) for this compound: CC(C)C(/C=C/c1ccccc1)n1cc(/C=C/C(=O)NO)nn1 (centres undefined)
Solution: 44.9

* * *

Property: LC50; scope: individual compounds
System: EKVX
Assay: Cytotoxicity against human EKVX cells
Type: cell-based

Past entries and their recorded results:
CC(/C=C/c1ccccc1)n1cc(/C=C/C(=O)NO)nn1 (centres undefined)    > 100 µM
O=C(/C=C/c1ccc(CN(CCO)CCc2c[nH]c3ccccc23)cc1)NO    > 100 µM
CC(C)C(/C=C/c1ccccc1)n1cc(/C=C/C(=O)NO)nn1 (centres undefined)    > 100 µM

Moving on to another compound below.
Exercise: Return LC50 (reported value) for this compound: O=C(/C=C/c1cn(C(/C=C/c2ccccc2)Cc2ccccc2)nn1)NO (centres undefined)
Solution: 87.4 µM

* * *

System: IGROV-1
Assay: Cytotoxicity against human IGROV1 cells
Format: cell-based
Property: LC50; scope: individual compounds
The answer is to be given in µM; state only the numeric part.

Past entries and their recorded results:
CC(C)C(/C=C/c1ccccc1)n1cc(/C=C/C(=O)NO)nn1 (centres undefined)    31.6
O=C(/C=C/c1cn(C(/C=C/c2ccccc2)Cc2ccccc2)nn1)NO (centres undefined)    8.18
CC(/C=C/c1ccccc1)n1cc(/C=C/C(=O)NO)nn1 (centres undefined)    5.74

Exercise: Return LC50 (reported value) for this compound: O=C(/C=C/c1ccc(CN(CCO)CCc2c[nH]c3ccccc23)cc1)NO [DACINOSTAT]
Solution: 48.9

* * *

Property: LC50; scope: individual compounds
System: SW-620
Test: Cytotoxicity against human SW620 cells
Format: cell-based
The answer is to be given in µM; state only the numeric part.

O=C(/C=C/c1cn(C(/C=C/c2ccccc2)Cc2ccccc2)nn1)NO (centres undefined)    13.6
CC(C)C(/C=C/c1ccccc1)n1cc(/C=C/C(=O)NO)nn1 (centres undefined)    9.22
CC(/C=C/c1ccccc1)n1cc(/C=C/C(=O)NO)nn1 (centres undefined)    5.15

Moving on to another compound below.
Exercise: Return LC50 (reported value) for this compound: O=C(/C=C/c1ccc(CN(CCO)CCc2c[nH]c3ccccc23)cc1)NO
Solution: 81.3

* * *

Test system: TK-10
Experiment: Cytotoxicity against human TK10 cells
Type: cell-based
outcome.measure: LC50

O=C(/C=C/c1cn(C(/C=C/c2ccccc2)Cc2ccccc2)nn1)NO (centres undefined)    12.9 µM

Exercise: Return LC50 (reported value) for this compound: CC(C)C(/C=C/c1ccccc1)n1cc(/C=C/C(=O)NO)nn1 (centres undefined)
Solution: > 100 µM

Exercise: Return LC50 (reported value) for this compound: CC(/C=C/c1ccccc1)n1cc(/C=C/C(=O)NO)nn1 (centres undefined)
Solution: 31.9 µM

Exercise: Return LC50 (reported value) for this compound: O=C(/C=C/c1ccc(CN(CCO)CCc2c[nH]c3ccccc23)cc1)NO
Solution: > 100 µM

* * *

Test system: NCI-H226
Test: Cytotoxicity against human NCI-H226 cells
Type: cell-based
Property: LC50; scope: individual molecules
The answer is to be given in µM; state only the numeric part.

Past entries and their recorded results:
O=C(/C=C/c1cn(C(/C=C/c2ccccc2)Cc2ccccc2)nn1)NO (centres undefined)    46.8
CC(C)C(/C=C/c1ccccc1)n1cc(/C=C/C(=O)NO)nn1 (centres undefined)    40.1
O=C(/C=C/c1ccc(CN(CCO)CCc2c[nH]c3ccccc23)cc1)NO    20

Moving on to another molecule below.
Exercise: Return LC50 (reported value) for this molecule: CC(/C=C/c1ccccc1)n1cc(/C=C/C(=O)NO)nn1 (centres undefined)
Solution: 71.4

* * *

Property: LC50; scope: individual compounds
System: SF-539
Assay: Cytotoxicity against human SF539 cells
Assay type: cell-based
The answer is to be given in µM; state only the numeric part.

Past entries and their recorded results:
O=C(/C=C/c1cn(C(/C=C/c2ccccc2)Cc2ccccc2)nn1)NO (centres undefined)    6.91
CC(C)C(/C=C/c1ccccc1)n1cc(/C=C/C(=O)NO)nn1 (centres undefined)    8.21
O=C(/C=C/c1ccc(CN(CCO)CCc2c[nH]c3ccccc23)cc1)NO [DACINOSTAT]    57.1

Moving on to another compound below.
Exercise: Return LC50 (reported value) for this compound: CC(/C=C/c1ccccc1)n1cc(/C=C/C(=O)NO)nn1 (centres undefined)
Solution: 4.61

* * *

Tested on: CCRF-CEM
Experiment: Antiproliferative activity against human CCRF-CEM cells by SRB assay
Assay type: functional
outcome.measure: GI50

O=C(/C=C/c1ccc(CN(CCO)CCc2c[nH]c3ccccc23)cc1)NO    251 nM
CC(/C=C/c1ccccc1)n1cc(/C=C/C(=O)NO)nn1 (centres undefined)    442 nM
O=C(/C=C/c1cn(C(/C=C/c2ccccc2)Cc2ccccc2)nn1)NO (centres undefined)    320 nM

Moving on to another compound below.
Exercise: Return GI50 (reported value) for this compound: CC(C)C(/C=C/c1ccccc1)n1cc(/C=C/C(=O)NO)nn1 (centres undefined)
Solution: 351 nM
